- Protocol: Human HepG2 cell viability assay in 384 well format
- Type: toxicity, cell-based
- Parameters: dose 125 nL, time 70.5 hour; concentration not given beside the values
- Condition Context: HepG2 cells, read-out: Inhibition
Outcome Measure: cytotoxicity at 70.5 h (%)
State just the number; it will be interpreted in %.

Example molecules with recorded cytotoxicity at 70.5 h:
CC(C)C1CN(c2cccc(C#N)n2)CCCN1Cc1ccc(F)cc1 (configuration not stated)	-15.7
COc1cc(OC)cc(C2CCN(CC(=O)NCC(F)(F)F)C2)c1 (configuration not stated)	-3.94
CCNc1ncc2c(n1)CN(c1cccc(OC)c1)C2=O	-7.43
COc1ccc(-c2ccnc3nc(N4CCCCC4)[nH]c(=O)c23)cc1	-9.32
Cc1ccc(C(=O)N2C[C@@H](OCc3cccnc3)[C@H]3OCCC[C@@H]32)o1	10.6

Here is another molecule to look at.
What does the data say about its cytotoxicity at 70.5 h? Entry: CSCc1cc(F)ccc1CNC(=O)N1CCC(CO)CC1 -0.781
